- Method Description: Mot1-301 yeast growth enhancement – whole organism, S. cerevisiae, ATP luminescence, cherry-picked samples, SUMO pathway inhibitor project, dose response (AID 493004);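 further: more negative values mean stronger growth rescue toward the control strain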
- Condition Description: S. cerevisiae Mot1-301 galactose growth, 24 h, -100 = growth of slx-deleted rescue strain; series mostly up to 42 µM
The campaign covered roughly 2,300 compounds. Fewer than 10 were called active. Only a sample is shown.
Metric Name: outcome

CC(C)c1cc(C(=O)N/N=C/C(Br)=C/c2ccccc2)n[nH]1 :: inactive
Cc1cccc(C)c1NC(=O)C(Cl)C(=O)c1ccccc1 (stereo unspecified) :: inactive
CCOCCCNCc1ccc(OCc2ccc(F)cc2)c(OC)c1 :: inactive
O=Cc1ccc(Oc2cccc(C(F)(F)F)c2)nc1 :: inactive
CC(C)Cc1nc(N2CCOCC2)c(C#N)c2c1CCC2 :: inactive

Okay, next one:
Prompt: Need outcome of Oc1c(Cl)cc(Cl)c(Cl)c1Cc1c(O)c(Cl)cc(Cl)c1Cl , thanks.
Completion: inactive

====

- Method Description: Mot1-301 yeast growth enhancement – whole organism, S. cerevisiae, ATP luminescence, cherry-picked samples, SUMO pathway inhibitor project, dose response (AID 493004);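 further: more negative values mean stronger growth rescue toward the control strain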
- Condition Description: S. cerevisiae Mot1-301 galactose growth, 24 h, -100 = growth of slx-deleted rescue strain; series mostly up to 42 µM
Hit rate of the full screen: of about 2,300 compounds, fewer than 10 were called active. The list is a sample of the results.
Metric Name: outcome

Cc1cc(C)c2c(Cn3ccnc3)cc(=O)oc2c1 :: inactive
CC(Oc1ccccc1[N+](=O)[O-])C(=O)N/N=C/c1ccoc1 (configuration not stated) :: inactive
COc1cccc(CN(C)CC2CCCN(CCc3ccc(Cl)cc3)C2)c1OC (configuration not stated) :: inactive
COc1cc(CN2CCNC(=O)C2CC(=O)NCCc2ncccc2C)cc(OC)c1 (configuration not stated) :: inactive
COc1ccc(C(=O)OCC(=O)c2ccc(C)c(S(=O)(=O)N3CCOCC3)c2)cc1OC :: inactive
COc1ccc(-c2cn(-c3ccc(C)cc3)c(=O)n2CC(=O)Nc2ccc(OC)c(OC)c2)cc1 :: inactive

List outcome for every entry below, keeping the order given.
1. CCOc1ccc(C(C(=O)NC2CCCC2)N(C(=O)c2snc(C(N)=O)c2N)C2CCCC2)cc1 (configuration not stated)
2. CCCCC1=CC2=CC(=O)C(C)(OC(=O)CC)C(=O)C2=CN1CCCOC(C)C (configuration not stated)
3. CCn1c(SCC(=O)N/N=C/c2ccccc2OCC(=O)O)nnc1-c1ccc(C(C)(C)C)cc1
4. O=C(NC1CCCCC1)c1ccc2c(=O)n(CC3CCCO3)c(=O)[nH]c2c1 (configuration not stated)
5. COc1ccccc1CSc1ncc(-c2ccc([N+](=O)[O-])cc2)[nH]1
6. Cc1ccc(O)c(CNc2nc3ccccc3n2C)c1

Completion:
1. inactive
2. inactive
3. inactive
4. inactive
5. inactive
6. inactive
